Values from patent US9771333B2

Target: human Axl (Homo sapiens, UniProt P30530)
Construct: GST (N)
Sequence (P30530 473-894 limits assumed): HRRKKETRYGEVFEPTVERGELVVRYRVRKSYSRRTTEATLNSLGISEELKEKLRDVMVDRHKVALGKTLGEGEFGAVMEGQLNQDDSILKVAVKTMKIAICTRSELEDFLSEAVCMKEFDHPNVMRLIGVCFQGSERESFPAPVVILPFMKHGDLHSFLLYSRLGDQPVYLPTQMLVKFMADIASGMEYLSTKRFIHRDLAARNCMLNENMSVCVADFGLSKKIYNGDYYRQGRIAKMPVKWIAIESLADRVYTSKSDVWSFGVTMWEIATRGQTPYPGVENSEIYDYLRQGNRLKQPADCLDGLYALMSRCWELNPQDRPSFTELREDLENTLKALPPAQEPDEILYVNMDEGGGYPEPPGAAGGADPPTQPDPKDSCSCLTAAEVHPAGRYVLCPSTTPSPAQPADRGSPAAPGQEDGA
Assay: Kinase enzymatic activity assay (33P-radiolabeled phosphate transfer), Axl
Conditions: recombinant human Axl (473-end), poly(4:1 glu:tyr) substrate, 30 minutes
parameter.measured: IC50

CN1CCC(COc2cc(OC3CCOCC3)c3c(Nc4nc(C(F)(F)F)cs4)ncnc3c2)CC1 | < 500 nM
COCCOc1cc(OCCN2CCN(C)CC2)cc2ncnc(Sc3ccc(Cl)cc3)c12 | > 10000 nM
Cc1nnc(Sc2ncnc3cc(OCC4CCN(C)CC4)cc(OC4CCOCC4)c23)s1 | 500 to 1000 nM
COc1cc(N2CCOCC2)cc2ncnc(Nc3nc(C(F)(F)F)cs3)c12 | 1000 to 10000 nM
CN1CCN(CCOc2cc(OC3CCOCC3)c3c(Sc4ccc(F)cc4Cl)ncnc3c2)CC1 | > 10000 nM
CN1CCC(COc2cc(OC3CCOCC3)c3c(Oc4ccc(C(F)(F)F)cc4)ncnc3c2)CC1 | < 500 nM

====

Target: human Axl (Homo sapiens)
Construct: GST (N)
Test: Kinase enzymatic activity assay (33P-radiolabeled phosphate transfer), Axl
Settings: recombinant human Axl (473-end), poly(4:1 glu:tyr) substrate, 30 minutes
Description: The identification of compounds of the invention as Tyro3, Axl or Mer inhibitors was readily accomplished using the recombinant human Tyro3, Axl and Mer proteins and employing the ^33P-radiolabeled phosphate transfer assay for which the procedure is known to someone skilled in the art or as described in Example 9. […] The enzymatic activity of all three kinases was determined as follows. […] The corrected CPM in each test well was determined by subtracting the average value of Blank well values. […]
parameter.measured: IC50

CN1CCC(COc2cc(OC3CCOCC3)c3c(Oc4cccc(C(F)(F)F)c4)ncnc3c2)CC1 [Example 4.10] | 500 to 1000 nM
CN1CCC(COc2cc(OC3CCOCC3)c3c(Sc4nccs4)ncnc3c2)CC1 [Example 2.52] | < 500 nM
c1nc(Nc2nncs2)c2c(OC3CCOCC3)cc(OCCCN3CCOCC3)cc2n1 [Example 2.19] | < 500 nM
CN(C)CCCOc1cc(OC2CCOCC2)c2c(Nc3nc(C(F)(F)F)cs3)ncnc2c1 [Example 2.54] | < 500 nM
CN(C)CCOCCOc1cc(OC2CCOCC2)c2c(Nc3nc(C(F)(F)F)cs3)ncnc2c1 [Example 2.56] | < 500 nM
COc1cc(OCCCN2CCOCC2)cc2ncnc(Oc3ccc(F)cc3Cl)c12 [Example 2.17] | 1000 to 10000 nM

====

Target: human Mer (Homo sapiens, UniProt Q12866)
Construct: GST (N)
Sequence (Q12866 578-872): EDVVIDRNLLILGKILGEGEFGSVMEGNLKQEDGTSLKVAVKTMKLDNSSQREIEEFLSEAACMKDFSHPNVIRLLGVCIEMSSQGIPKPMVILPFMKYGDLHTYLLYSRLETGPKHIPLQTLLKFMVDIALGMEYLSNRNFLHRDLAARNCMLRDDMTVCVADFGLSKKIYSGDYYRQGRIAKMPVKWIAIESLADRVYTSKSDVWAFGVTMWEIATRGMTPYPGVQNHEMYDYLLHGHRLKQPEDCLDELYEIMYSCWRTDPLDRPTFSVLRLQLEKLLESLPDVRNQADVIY
Assay: Kinase enzymatic activity assay (33P-radiolabeled phosphate transfer), Mer
Conditions: recombinant human Mer (578-872), poly(4:1 glu:tyr) substrate, 30 minutes
parameter.measured: IC50

Fc1ccc(Oc2ncnc3cc(OCCCN4CCOCC4)cc(OC4CCOCC4)c23)c(Cl)c1 | < 500 nM
CN(C)CCOCCOc1cc(OC2CCOCC2)c2c(Oc3ccc(F)cc3Cl)ncnc2c1 | < 500 nM
CN1CCN(CCOc2cc(OC3CCOCC3)c3c(Oc4ccccc4)ncnc3c2)CC1 | 1000 to 10000 nM

====

Target: human Mer (Homo sapiens)
Construct: GST (N)
Experiment: Kinase enzymatic activity assay (33P-radiolabeled phosphate transfer), Mer
Settings: recombinant human Mer (578-872), poly(4:1 glu:tyr) substrate, 30 minutes
pIC50: −log10 of the molar value.
Property: pIC50; scope: individual compounds
parameter.measured: pIC50

Fc1ccc(Oc2ncnc3cc(OCCCN4CCOCC4)cc(N4CCOCC4)c23)c(Cl)c1 | 5.00 to 6.00
CN(C)CCCOc1cc(OC2CCOCC2)c2c(Oc3ccc(F)cc3Cl)ncnc2c1 | > 6.30
COc1cc(OCCCN2CCOCC2)cc2ncnc(Oc3ccc(F)cc3Cl)c12 | 5.00 to 6.00
CN1CCC(COc2cc(OC3CCOCC3)c3c(Oc4cccc(C(F)(F)F)c4)ncnc3c2)CC1 | 6.00 to 6.30
COC(=O)c1cccc(Oc2ncnc3cc(OCCCN4CCOCC4)cc(OC)c23)c1 | < 5.00

====

Property: IC50; scope: individual compounds
Target: human Tyro3 (Homo sapiens, UniProt Q06418)
Construct: GST (N)
Sequence (Q06418 455-890 limits assumed): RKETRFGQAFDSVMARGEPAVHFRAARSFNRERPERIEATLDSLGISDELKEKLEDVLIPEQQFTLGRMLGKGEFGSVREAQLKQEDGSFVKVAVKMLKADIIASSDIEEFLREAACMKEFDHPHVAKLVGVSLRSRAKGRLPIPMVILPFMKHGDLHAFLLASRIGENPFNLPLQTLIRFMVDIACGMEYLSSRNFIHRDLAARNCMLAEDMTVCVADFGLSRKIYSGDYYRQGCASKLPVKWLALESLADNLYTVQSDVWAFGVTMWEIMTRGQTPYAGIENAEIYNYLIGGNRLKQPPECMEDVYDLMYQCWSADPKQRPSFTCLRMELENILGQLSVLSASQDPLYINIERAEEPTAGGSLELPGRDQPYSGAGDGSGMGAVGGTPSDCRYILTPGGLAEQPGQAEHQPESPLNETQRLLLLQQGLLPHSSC
Test: Kinase enzymatic activity assay (33P-radiolabeled phosphate transfer), Tyro3
Settings: recombinant human Tyro3 (455-end), poly(4:1 glu:tyr) substrate, 30 minutes
parameter.measured: IC50

CN1CCC(COc2cc(OC3CCOCC3)c3c(Oc4cccc(C(F)(F)F)c4)ncnc3c2)CC1 | < 500 nM
COc1cc(OCCN2CCN(C)CC2)cc2ncnc(Oc3ccc(F)cc3Cl)c12 | < 500 nM
CN1CCC(COc2cc(OC3CCOCC3)c3c(Nc4ncn[nH]4)ncnc3c2)CC1 | > 10000 nM
CN1CCC(COc2cc(OC3CCOCC3)c3c(Oc4ccc(C(F)(F)F)cc4)ncnc3c2)CC1 | < 500 nM
COCCN1CCN(c2cc(OC3CCOCC3)c3c(Oc4ccc(F)cc4Cl)ncnc3c2)CC1 | < 500 nM
CN1CCC(CCOc2cc(OC3CCOCC3)c3c(Oc4ccc(F)cc4Cl)ncnc3c2)CC1 | < 500 nM
Cc1nnc(Nc2ncnc3cc(OCC4CCN(C)CC4)cc(OC4CCOCC4)c23)s1 | > 10000 nM
